Provide the reported pKd of each item.
experimental target: T1, recombinant N-terminal extracellular domain of the human PTH1R receptor (human, UniProt Q03431 27-188, limits assumed)
T1 construct: domain: N-terminal extracellular domain; Bought reagent; also called N-ECD PTH1R; PTH1R N-terminal ECD
T1 sequence (looked up): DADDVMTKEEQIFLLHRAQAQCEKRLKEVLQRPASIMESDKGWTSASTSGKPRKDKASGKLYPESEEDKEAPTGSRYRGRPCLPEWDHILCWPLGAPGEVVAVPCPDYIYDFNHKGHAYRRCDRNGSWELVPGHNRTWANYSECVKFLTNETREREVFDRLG
experimental protocol: SPR, IgG captured, ECD injected
Give bare numbers, as −log10 of the molar value.

Below are worked cases with known answers.
binder	assay value
XPA.85.337 (antibody, V domains shown, Light-chain-shuffled variant of XPA.85.017) VH: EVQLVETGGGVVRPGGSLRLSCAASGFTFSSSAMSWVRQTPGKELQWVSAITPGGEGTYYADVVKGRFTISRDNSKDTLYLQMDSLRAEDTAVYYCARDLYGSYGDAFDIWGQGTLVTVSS VL: SYVLTQPPSVSVAPGQTATITCSGDDFGDKYVSWYQQKPGQSPLLVIFQDNERPSGIPERFSGSNSGNTATLTISGTQAMDEADYYCQAWDSNWVFGGGTKVTVL	9.12
XPA.85.336 (antibody, V domains shown, Light-chain-shuffled variant of XPA.85.017) VH: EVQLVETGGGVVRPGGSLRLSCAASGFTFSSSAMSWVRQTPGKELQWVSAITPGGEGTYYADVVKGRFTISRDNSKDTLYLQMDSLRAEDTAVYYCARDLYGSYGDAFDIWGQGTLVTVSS VL: QSVLTQPPSVSAAPGQKVTISCSGTGSNIGSNYVAWYQQLPGTAPKLLIYDDNKRPSGTPDRFSGSKSGTSATLVIAGLQTGDEADYYCGTWDNTLNVGGVFGGGTQLTVL	7.77

Next binder, pKd to be filled in.
Query XPA.85.345 (antibody, V domains shown, Light-chain-shuffled variant of XPA.85.012) VH: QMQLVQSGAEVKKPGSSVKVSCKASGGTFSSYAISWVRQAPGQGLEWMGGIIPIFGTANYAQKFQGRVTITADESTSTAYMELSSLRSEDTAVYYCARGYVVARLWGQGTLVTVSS VL: ETTLTQSPAFMSASVGDRVTITCQASQDINNFLNWYQQKPGKAPKFLIYDASNLEKGVPSRFSGRGSGTEFTLTISSLQPEDIATYYCQQYRDFPLTFGQGTRLEIK yields pKd of 9.25
